Values from patent US20240090503A1

System: Puccinia recondita f. sp. tritici (the causal agent of wheat leaf rust)
Protocol summary: Test C: preventive spray on wheat seedlings, wheat leaf rust, visual disease rating
Format: in vivo
Assay conditions: test suspension 10 ppm; wheat seedlings
Examples of molecules with documented Test C disease control rating follow.
Quick note: give the figure in %, leave out the unit.

Illustrative cases are given below, each with its answer.
FC(F)(F)c1nc(-c2ccc(OCc3cn4ccccc4n3)cc2)no1 : 0
Cc1cc(C(=O)N(C)C)nn1Cc1ccc(-c2noc(C(F)(F)F)n2)cc1 : 100
O=c1ccc2ccccc2n1Cc1ccc(-c2noc(C(F)(F)F)n2)cc1 : 100
CCOC(=O)c1nn(Cc2ccc(-c3noc(C(F)(F)F)n3)cc2)c(C(=O)OCC)c1C(=O)OCC : 91
N#CC(C#N)NC(=O)c1coc(Cc2ccc(-c3noc(C(F)(F)F)n3)cc2)n1 : 86
CN(C)C(=O)c1cc(COc2ccc(-c3noc(C(F)(F)F)n3)cc2)on1 : 0
COC(CNC(=O)c1coc(Cc2ccc(-c3noc(C(F)(F)F)n3)cc2)n1)OC : 100
CCOC(=O)c1cnn(C(C)c2ccc(-c3noc(C(F)(F)F)n3)s2)c1 (stereo not shown) [Compound 192] : 100
O=C(OCC1CC1)c1cnn(COc2ccc(-c3noc(C(F)(F)F)n3)cc2)c1 : 74
CCC#CCOC(=O)c1cnn(Cc2ccc(-c3noc(C(F)(F)F)n3)cc2)c1 : 98

Now take the following molecule into account.
Req: Looking for the measured Test C disease control rating of `O=C(NCC1CC1)c1coc(Cc2ccc(-c3noc(C(F)(F)F)n3)cc2)n1` , can you help?
Resp: 100

###

Test system: Zymoseptoria tritici (the causal agent of wheat leaf blotch)
Protocol summary: Test B: preventive spray on wheat seedlings, wheat leaf blotch, visual disease rating
Type: in vivo
Assay conditions: test suspension 255 ppm; wheat seedlings
Measure: Test B disease control rating (%)
Quick note: give the figure in %, leave out the unit.

Illustrative cases are given below, each with its answer.
COC(=O)c1nn(Cc2ccc(-c3noc(C(F)(F)F)n3)cc2)c2ccccc12 [compound 134] : 0
CCOC(=O)c1nn(Cc2ccc(-c3noc(C(F)(F)F)n3)cc2)c2ccccc12 [compound 117] : 0
CCOC(=O)c1cn(Cc2ccc(-c3noc(C(F)(F)F)n3)cc2)nc1C(F)(F)F [compound 111] : 0

Req: Requested read-out Test B disease control rating, target or system Zymoseptoria tritici (the causal agent of wheat leaf blotch), entry O=c1sc2ccccc2n1Cc1ccc(-c2noc(C(F)(F)F)n2)cc1 [compound 156]
Resp: 86

###

Examples of compounds with documented Test C disease control rating follow.
System: Puccinia recondita f. sp. tritici (the causal agent of wheat leaf rust)
Protocol summary: Test C: preventive spray on wheat seedlings, wheat leaf rust, visual disease rating
Type: in vivo
Assay conditions: test suspension 10 ppm; wheat seedlings
Kindly format the answer as number then unit.

COC(=O)c1ccc2c(cnn2Cc2ccc(-c3noc(C(F)(F)F)n3)cc2)c1 : 89%

Req: Looking for the measured Test C disease control rating of `FC(F)(F)c1nc(-c2ccc(Cn3nc(Br)c4ccccc43)cc2)no1` , can you help?
Resp: 0%

Req: Also `O=C(O)c1csc(Cc2ccc(-c3noc(C(F)(F)F)n3)cc2)n1` ?
Resp: 68%

Req: Also CC(C#N)OC(=O)c1cnn(Cc2ccc(-c3noc(C(F)(F)F)n3)cc2)c1 (stereo not shown) ?
Resp: 9%

###

Tested on: Puccinia recondita f. sp. tritici (the causal agent of wheat leaf rust)
Protocol summary: Test C: preventive spray on wheat seedlings, wheat leaf rust, visual disease rating
Format: in vivo
Assay conditions: test suspension 10 ppm; wheat seedlings
true (1) if Test C disease control rating is below 9%. false (0) if not; exact matches included in false (0).

Completed entries (count: 6):
O=C(NC1CC1)c1cnn(Cc2ccc(-c3noc(C(F)(F)F)n3)cc2)c1 [compound 69] : false (0)
CC(C)=CCOC(=O)c1cnn(Cc2ccc(-c3noc(C(F)(F)F)n3)cc2)c1 [compound 169] : false (0)
CON=C(C)COC(=O)c1cnn(Cc2ccc(-c3noc(C(F)(F)F)n3)cc2)c1 [compound 350] : false (0)
COc1ccc2nn(Cc3ccc(-c4noc(C(F)(F)F)n4)cc3)cc2c1 [compound 131] : false (0)
COC(=O)c1ccc2nn(Cc3ccc(-c4noc(C(F)(F)F)n4)cc3)cc2c1 [compound 35] : false (0)
CCOC(=O)c1cc(C(C)(C)C)n(Cc2ccc(-c3noc(C(F)(F)F)n3)cc2)n1 [compound 187] : true (1)

Here is another molecule to look at.
Req: Test C disease control rating strictly < 9% for this molecule? CCOC(=O)c1cc(C(C)C)nn1Cc1ccc(-c2noc(C(F)(F)F)n2)cc1 [compound 82]
Resp: true (1)

###

Examples of compounds with documented Test C disease control rating follow.
Test system: Puccinia recondita f. sp. tritici (the causal agent of wheat leaf rust)
Protocol summary: Test C: preventive spray on wheat seedlings, wheat leaf rust, visual disease rating
Type: in vivo
Assay conditions: test suspension 10 ppm; wheat seedlings
Source text: General protocol for preparing test suspensions for Tests A-D: the test compounds were first dissolved in acetone in an amount equal to 3% of the final volume and then suspended at the desired concentration (in ppm) in acetone and purified water (50/50 mix by volume) containing 250 ppm of the surfactant PEG400 (polyhydric alcohol esters). The resulting test suspensions were then used in Tests A-D. The test suspension was sprayed to the point of run-off on wheat seedlings. […]
Quick note: give the figure in %, leave out the unit.

Illustrative cases are given below, each with its answer.
N#Cc1ccc2c(cnn2Cc2ccc(-c3noc(C(F)(F)F)n3)s2)c1 : 100
Cc1cc(C(=O)O)nn1Cc1ccc(-c2noc(C(F)(F)F)n2)cc1 : 9
CCOC(=O)c1cn(Cc2ccc(-c3noc(C(F)(F)F)n3)cc2)nn1 : 100
Cc1c2c(Br)cccc2nn1Cc1ccc(-c2noc(C(F)(F)F)n2)cc1 : 86
CCOC(=O)c1cc(C)n(Cc2ccc(-c3noc(C(F)(F)F)n3)s2)n1 : 86

Req: Looking for the measured Test C disease control rating of `CON(C)C(=O)c1nn(Cc2ccc(-c3noc(C(F)(F)F)n3)cc2)c2ccccc12` , can you help?
Resp: 96

Req: Also `O=C(NCC(F)(F)F)c1ccc(Cc2ccc(-c3noc(C(F)(F)F)n3)cc2)cc1` ?
Resp: 95

Req: Also `C=CCOC(=O)c1cnn(Cc2ccc(-c3noc(C(F)(F)F)n3)cc2)c1` ?
Resp: 100

Req: Also `CCOC(=O)c1cnn(Cc2cc(-c3noc(C(F)(F)F)n3)cs2)c1` ?
Resp: 68

Req: Also `COC(=O)c1ccc2nn(Cc3ccc(-c4noc(C(F)(F)F)n4)cc3)nc2c1` ?
Resp: 100

Req: Also `FC(F)(F)c1nc(-c2ccc(OCc3cn4cccnc4n3)cc2)no1` ?
Resp: 0

Req: Also `COCCNC(=O)c1cnn(COc2ccc(-c3noc(C(F)(F)F)n3)cc2)c1` ?
Resp: 74

Req: Also `C=CCOC(=O)c1cnn(Cc2ccc(-c3noc(C(F)(F)F)n3)s2)c1` ?
Resp: 100

Req: Also `CN(C)C(=O)c1coc(Cc2ccc(-c3noc(C(F)(F)F)n3)cc2)n1` ?
Resp: 99

Req: Also `O=C(O)c1cnn(Cc2ccc(-c3noc(C(F)(F)F)n3)cc2)c1` ?
Resp: 99

Req: Also `O=C(O)c1coc(Cc2ccc(-c3noc(C(F)(F)F)n3)cc2)n1` ?
Resp: 74

Req: Also `COC(=O)c1cccc2cn(Cc3ccc(-c4noc(C(F)(F)F)n4)cc3)nc12` ?
Resp: 28

Req: Also `O=C(c1coc(Cc2ccc(-c3noc(C(F)(F)F)n3)cc2)n1)N1CCCC1` ?
Resp: 97

Req: Also CCOC(=O)c1cnn(C(C)c2ccc(-c3noc(C(F)(F)F)n3)s2)c1 (centres unmarked) [compound 247] ?
Resp: 100

Req: Also `CCNC(=O)c1coc(Cc2ccc(-c3noc(C(F)(F)F)n3)cc2)n1` ?
Resp: 99

Req: Also `Cc1cc(C(F)(F)F)n(Cc2ccc(-c3noc(C(F)(F)F)n3)cc2)n1` ?
Resp: 0

Req: Also `CC(C)COC(=O)c1cnn(Cc2ccc(-c3noc(C(F)(F)F)n3)cc2)c1` ?
Resp: 100

Req: Also `FC(F)(F)c1nc(-c2ccc(CCCn3ccc(-c4ccccc4)n3)cc2)no1` ?
Resp: 68

###

Test system: Phakopsora pachyrhizi (the causal agent of Asian soybean rust)
Protocol summary: Test A: preventive spray on soybean seedlings, Asian soybean rust, visual disease rating
Format: in vivo
Assay conditions: test suspension 10 ppm; soybean seedlings; 100 = 100% disease control, 0 = no control
Measure: Test A disease control rating (%)
Quick note: give the figure in %, leave out the unit.

Illustrative cases are given below, each with its answer.
CCOC(=O)c1cc(C)n(Cc2ccc(-c3noc(C(F)(F)F)n3)s2)n1 [compound 73] : 100
CSc1nnn(Cc2ccc(-c3noc(C(F)(F)F)n3)cc2)c1C [compound 40] : 100
O=C(NC1CC1)c1cnn(Cc2ccc(-c3noc(C(F)(F)F)n3)cc2)c1 [compound 69] : 100
CCOC(=O)c1cnn(CCOc2ccc(-c3noc(C(F)(F)F)n3)cc2)c1 [compound 308] : 0

Now take the following compound into account.
Req: Looking for the measured Test A disease control rating of Cc1cc(C(=O)N(C)C)nn1Cc1ccc(-c2noc(C(F)(F)F)n2)cc1 [compound 182] , can you help?
Resp: 100
